# Target Desc: T1, human CXCR2 (human, UniProt P25025 1-360)
# T1 construct: also called CXC chemokine receptor 2; hCXCR2
# T1 sequence: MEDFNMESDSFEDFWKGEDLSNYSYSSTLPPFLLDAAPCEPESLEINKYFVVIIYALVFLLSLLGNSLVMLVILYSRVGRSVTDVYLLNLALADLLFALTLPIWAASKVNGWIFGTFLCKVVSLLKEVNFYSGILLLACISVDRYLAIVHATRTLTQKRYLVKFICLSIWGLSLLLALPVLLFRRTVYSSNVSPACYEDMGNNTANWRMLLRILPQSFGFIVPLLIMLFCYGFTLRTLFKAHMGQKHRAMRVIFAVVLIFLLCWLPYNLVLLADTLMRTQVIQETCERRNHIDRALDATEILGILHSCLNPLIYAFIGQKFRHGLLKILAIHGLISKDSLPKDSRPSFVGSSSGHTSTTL
# Test: flow cytometry, CXCR2-transfected Expi293F cells
Listed binders paired with reported Fold change in binding relative to BKO-4A8
Reply with just the number (in fold).

Known Fold change in binding relative to BKO-4A8 results, listed for orientation:
| Binder | Measured |
| --- | --- |
| BKO-4A8 variant VH M96K (antibody, human IgG4 S228P, lambda, V domains shown, IgG4 S228P, lambda; parental light chain; also called 4A8 VH M96K) VH: EVQLLESGGGLVQPGGSLRLSCAASGFTFSSSTMSWVRQAPGKGLEWVSAISGRGRNTYYADSVKGRFTISRDNSRNTLYLQMNSLRAEDTAVYYCAIQKGYWGQGILVTVSS VL: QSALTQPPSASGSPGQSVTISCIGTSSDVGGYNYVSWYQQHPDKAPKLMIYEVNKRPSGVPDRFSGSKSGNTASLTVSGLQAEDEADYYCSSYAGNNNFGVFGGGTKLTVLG | 1 |
| BKO-4A8 variant VL N94W (antibody, human IgG4 S228P, lambda, V domains shown, IgG4 S228P, lambda; parental heavy chain; also called 4A8 VL N94W) VH: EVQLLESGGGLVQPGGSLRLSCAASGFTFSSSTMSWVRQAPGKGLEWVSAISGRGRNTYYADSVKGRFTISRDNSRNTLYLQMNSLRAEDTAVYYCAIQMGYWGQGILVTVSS VL: QSALTQPPSASGSPGQSVTISCIGTSSDVGGYNYVSWYQQHPDKAPKLMIYEVNKRPSGVPDRFSGSKSGNTASLTVSGLQAEDEADYYCSSYAGWNNFGVFGGGTKLTVLG | 0.63 |

Input: Which measured Fold change in binding relative to BKO-4A8 value corresponds to BKO-4A8 variant VH N56S (antibody, human IgG4 S228P, lambda, V domains shown, IgG4 S228P, lambda; parental light chain; also called 4A8 VH N56S) VH: EVQLLESGGGLVQPGGSLRLSCAASGFTFSSSTMSWVRQAPGKGLEWVSAISGRGRSTYYADSVKGRFTISRDNSRNTLYLQMNSLRAEDTAVYYCAIQMGYWGQGILVTVSS VL: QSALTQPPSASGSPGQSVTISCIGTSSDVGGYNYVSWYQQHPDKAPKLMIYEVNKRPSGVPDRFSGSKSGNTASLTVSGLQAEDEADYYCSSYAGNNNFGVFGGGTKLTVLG ?
Output: 1
